Ref: patent US20030119725A1

- System: T1, Pep-B, 51-mer peptide derived from human Cdc25C dual-specificity phosphatase
- T1 construct: also called peptide B
- Assay Details: intrinsic Trp fluorescence titration of 1 µM Pep-2
pKd: −log10 of the molar value. *1 amine or outer side, *2 acyl side, *3 side chain or, on linkers, in order; H or OH if unused. Cysteamide = C(CS[*:3])N[*:1]
Quantity Measured: pKd

Prompt: Specify reported pKd for the binder shown: Ac-KETWWETWWTEWSQPKKKRKV-Cysteamide (Synthetic 21-residue peptide: Trp-rich hydrophobic domain, Ser-Gln-Pro spacer, and a Lys-rich domain derived from the SV40 large T antigen NLS; also called Pep-2-cya; peptide vector) [Pep-2 (KETWWETWWTEWSQPKKKRKV-cya)]
Completion: ~6.92
